# test-target: full length human MSR1 with a C-terminal Myc tag on HEK293.Myc.hMSR1 cells (human) (UniProt P21757)
# Sequence (P21757 whole entry): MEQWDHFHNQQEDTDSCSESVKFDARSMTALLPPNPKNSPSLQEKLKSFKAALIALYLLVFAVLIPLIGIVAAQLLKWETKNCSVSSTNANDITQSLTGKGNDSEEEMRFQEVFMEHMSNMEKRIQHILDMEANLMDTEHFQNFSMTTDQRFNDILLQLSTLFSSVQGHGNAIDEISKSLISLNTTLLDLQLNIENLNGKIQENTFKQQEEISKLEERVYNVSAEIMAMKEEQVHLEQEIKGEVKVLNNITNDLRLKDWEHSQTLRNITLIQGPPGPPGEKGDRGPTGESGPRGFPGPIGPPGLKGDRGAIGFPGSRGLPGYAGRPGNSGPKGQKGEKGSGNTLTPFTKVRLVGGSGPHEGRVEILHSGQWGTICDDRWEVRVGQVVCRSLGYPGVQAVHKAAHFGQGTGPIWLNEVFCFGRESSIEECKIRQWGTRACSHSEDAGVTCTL
# protocol-details: ECL cell binding, HEK293.Myc.hMSR1 cells
metric-name: ratio of 11 nM antibody binding signal (RLU) to isotype control
Could you respond with only the numeric value?

H1H21231N-N297Q (antibody, human IgG1, V domains shown) VH: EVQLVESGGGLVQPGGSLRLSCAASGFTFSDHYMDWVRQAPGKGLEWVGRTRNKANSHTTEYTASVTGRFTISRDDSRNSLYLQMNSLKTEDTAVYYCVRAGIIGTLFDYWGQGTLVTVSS VL: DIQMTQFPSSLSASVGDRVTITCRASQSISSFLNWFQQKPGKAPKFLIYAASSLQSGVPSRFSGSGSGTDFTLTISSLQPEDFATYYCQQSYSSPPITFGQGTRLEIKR
64

Kindly review the next binder as well.
Give the value of ratio of 11 nM antibody binding signal (RLU) to isotype control reported for the following: H1H21234N (antibody, human IgG1, V domains shown) VH: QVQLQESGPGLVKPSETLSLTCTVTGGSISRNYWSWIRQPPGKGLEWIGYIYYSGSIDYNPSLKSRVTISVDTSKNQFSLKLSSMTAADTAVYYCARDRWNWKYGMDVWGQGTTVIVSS VL: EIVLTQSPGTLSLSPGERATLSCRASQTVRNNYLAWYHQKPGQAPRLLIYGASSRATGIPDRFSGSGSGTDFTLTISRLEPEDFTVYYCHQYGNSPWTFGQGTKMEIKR
32
